study system: human CYP1A2 (Homo sapiens, UniProt P05177)
Sequence (P05177 whole entry): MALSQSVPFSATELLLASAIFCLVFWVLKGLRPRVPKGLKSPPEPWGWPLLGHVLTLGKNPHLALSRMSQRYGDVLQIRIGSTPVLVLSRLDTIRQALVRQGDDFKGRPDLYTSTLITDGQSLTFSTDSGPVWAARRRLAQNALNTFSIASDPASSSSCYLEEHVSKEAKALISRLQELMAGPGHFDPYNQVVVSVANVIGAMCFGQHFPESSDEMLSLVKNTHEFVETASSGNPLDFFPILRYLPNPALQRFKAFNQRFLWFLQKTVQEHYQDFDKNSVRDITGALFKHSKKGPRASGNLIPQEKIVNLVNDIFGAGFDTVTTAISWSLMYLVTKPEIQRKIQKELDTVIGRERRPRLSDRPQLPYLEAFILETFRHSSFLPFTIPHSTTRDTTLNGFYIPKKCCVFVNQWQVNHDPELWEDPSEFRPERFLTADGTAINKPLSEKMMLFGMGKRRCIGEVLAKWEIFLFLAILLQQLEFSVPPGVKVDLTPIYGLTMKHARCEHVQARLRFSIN
test: biochemical
measurement type: log10 IC50 (log10 of the value in µM)
Values reflect log10 of reported IC50 (µM).

Request: What does the data say about its log10 IC50? Entry: `COc1ccc(S(=O)(=O)N2C(=O)[C@@](c3ccccc3OC)(N3C[C@H](O)C[C@H]3C(=O)N(C)C)c3cc(Cl)ccc32)c(OC)c1`
Response: 1.73

Request: Here is the next molecule: `Cc1nc2n(c(=O)c1CCN1CCC(C(=O)c3ccc(F)cc3)CC1)CCS2`
Response: 1.51

Request: Here is the next molecule: `CCCCCOc1ccccc1/C(=C\SC)n1ccnc1`
Response: 0.65

Request: Here is the next molecule: `CCN(CC)Cc1nccn1-c1ccc([N+](=O)[O-])cc1C(=O)c1ccccc1Cl`
Response: 1.30

Request: Here is the next molecule: `C/C(=C(/OCCOc1ccc(Cl)cc1)c1ccc(Cl)cc1Cl)n1ccnc1`
Response: 0.40

Request: Here is the next molecule: CC(C(O)c1ccccc1)N(C)C/C=C/c1ccccc1 (stereo not shown)
Response: 1.21

Request: Here is the next molecule: CC(c1cc2ccccc2s1)N(O)C(N)=O (stereo not shown) [zileuton, reference compound]
Response: 0.72

Attribution: paper PMC12155096
